// values below are reported pKd
target: CYP3A4 (Homo sapiens); assay: biochemical
Sequence (P08684 whole entry): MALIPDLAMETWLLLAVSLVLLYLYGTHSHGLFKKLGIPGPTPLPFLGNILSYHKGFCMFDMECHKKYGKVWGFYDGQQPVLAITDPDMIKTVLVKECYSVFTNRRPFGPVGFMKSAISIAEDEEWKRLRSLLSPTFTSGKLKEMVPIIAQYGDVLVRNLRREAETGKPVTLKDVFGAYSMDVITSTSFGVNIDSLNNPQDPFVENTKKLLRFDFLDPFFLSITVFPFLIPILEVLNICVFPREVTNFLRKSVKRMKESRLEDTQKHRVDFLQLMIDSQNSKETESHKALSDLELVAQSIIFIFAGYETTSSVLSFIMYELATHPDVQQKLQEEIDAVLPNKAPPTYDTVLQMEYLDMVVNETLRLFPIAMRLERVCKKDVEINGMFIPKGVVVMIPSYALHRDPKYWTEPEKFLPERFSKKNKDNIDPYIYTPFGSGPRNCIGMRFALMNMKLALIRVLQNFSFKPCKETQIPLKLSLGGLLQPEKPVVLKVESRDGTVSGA
Give only the number. pKd is defined as minus log10 of concentration in molar units.

MOLECULE	SYSTEM UNDER TEST	pKd
C/C(=C\COc1c2ccoc2cc2oc(=O)ccc12)CCC(O)C(C)(C)O (centres unmarked) [DHB, 6′,7′-dihydroxybergamottin]	CYP3A4 (Homo sapiens)	6.66

Task: Provide measured pKd on CYP3A4 (Homo sapiens) for CC(C)=CCC/C(C)=C/COc1c2ccoc2cc2oc(=O)ccc12 [bergamottin] please.
Result: 5.52
